# assay_text: resazurin metabolic signal in A549 cells – cell-based, resazurin fluorescence, 24 h, PK04 Diversity Set, profiling panel (AID 1171)
# study_conditions: A549 viability, higher = more signal, called active from +8 up or from −8 down
readout_kind: z-score
API note: the answer field is a bare number with no unit suffix.

Known results for compounds:
COCCCN1C(=O)[C@@]2(c3ccc([N+](=O)[O-])cc3)CC(=O)N(CC34CC5CC(CC(C5)C3)C4)[C@@H]2c2ccc(CO)cc21    -1.25
COc1ccc([Si](C)(C)[C@@H]2[C@@H](CC(=O)N(CCO)Cc3ccccc3)O[C@]3(C(=O)N(Cc4ccc(I)cc4)c4ccccc43)[C@H]2C)cc1    -2.88
CCCN1C(=O)[C@]2(CCC(=O)OC(C)(C)C)N=C(c3ccc(OCCCO)cc3)O[C@@H]2c2ccccc21    -0.965
CN(C)CCCCNC(=O)[C@H]1C[C@H]2C(=O)NCC(=O)N2[C@H]1c1ccc(O)cc1    1.05
CCCN1C(=O)[C@@]2(c3ccc([N+](=O)[O-])cc3)CC(=O)N(CC34CC5CC(CC(C5)C3)C4)[C@@H]2c2ccc(CO)cc21    0.0382
CCOC(=O)C1=C[C@@H](C(C)(C)C)N(S(=O)(=O)c2ccc(C)cc2)[C@H]1c1ccc(C#N)cc1    1.69

We next turn to a different compound, shown below.
Query: Return z-score for the following compound: CN(C)CCCCNC(=O)[C@H]1C[C@H]2C(=O)N3CCC[C@H]3C(=O)N2[C@H]1c1cccc(OCCO)c1
Reply: 0.677

----------
List of z-score values.
# assay_text: resazurin metabolic signal in HepG2 cells – cell-based, resazurin fluorescence, 24 h, PK04 Diversity Set, profiling panel (AID 1172)
# study_conditions: HepG2 viability, higher = more signal
Answer with a bare number; do not write a unit.

CC1CC/C=C\[C@H]2OC34C=CCN(c5ccc(Cl)cc5)C(=O)[C@H]3N(CCCCCCO)C(=O)[C@]4(C)C2C(=O)O1 (stereo partly drawn)    0.25
CN1C(=O)C2C(C1=O)C1C=C(CCCO)C2C(C2CC2)N1Cc1cccc(OC(F)(F)F)c1 (stereo not drawn)    -0.584
C=CCC(OC(C)=O)[C@@H]1[C@@H](N(Cc2cc3ccccc3o2)C(=O)Cc2ccc(OC)cc2)c2cc(OCCCO)ccc2N1C(=O)c1ccc2ccccc2n1 (stereo partly drawn)    -1.11
[N-]=[N+]=Nc1ccccc1[C@@H]1OC(c2ccc(OCCCO)cc2)=N[C@]1(CCS(=O)(=O)c1ccccc1)C(=O)NCC(O)CO (stereo partly drawn)    0.396
CCCCN1CC=CC23O[C@@H]4/C=C\CCCOC(=O)C4[C@H]2C(=O)N(C(CO)C(C)C)[C@@H]3C1=O (stereo partly drawn)    -0.101

Query: Fill in z-score for record O=C1[C@H]2C=C(I)[C@H](C[C@@H]2OCCCCCCO)[C@@]12CO2
Reply: 0.21

Query: # return recorded z-score for input C=CC[C@]1(C(=O)NCC(O)CO)COC(c2ccc(OCCCO)cc2)=N1 (stereo partly drawn)
Reply: -0.25

Query: Tell me z-score reported for CN1C(=O)C2C(C3CC3)C=C3CN(Cc4cccc(Cl)c4)[C@@H]([C@@H](O)Cc4ccccc4)C3C2C1=O (stereo partly drawn)
Reply: 0.313

----------
# Test system: Chordin-like protein 2 (CHRDL2)
# assay_text: compounds binding chordin-like 2 – biochemical, small-molecule microarray, 635 nm fluorescence, primary screen (AID 1126);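 also: printed compound slides probed with Chrdl2 protein at 4 µg/mL for 1 h at 4 C; score merges 667 nm emission intensity with signal to noise over three replicate slides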
# study_conditions: fluorescence 635 nm, higher = more signal
Threshold check on composite z-score: at or above -0.9 gives YES, strictly below gives NO.

Would you please look over these solved cases?
O=C(NC1CC1)[C@@H]1c2ccccc2C(=O)N(Cc2cc(C(F)(F)F)cc(C(F)(F)F)c2)[C@H]1c1ccc(CO)cc1    NO
CC(=O)OCC1C2CC[C@H]3C(OCc4ccc(F)cc4C(F)(F)F)OC[C@]4(C)[C@H]3C2=C(CN4C(=O)OC(C)(C)C)[C@H](C)C1COC(C)=O (some centres not stated)    NO
O=C1C2C=CC(C(O)c3c(F)cccc3Cl)N(Nc3ccc([N+](=O)[O-])cc3)C2C(=O)N1c1ccccc1 (configuration not stated)    YES

Query: Does the compound CC(C)N1C(=O)C[C@@](C(=O)NCCN2CCOCC2)(c2ccc([N+](=O)[O-])cc2)[C@H]1c1ccc(CO)cc1 have recorded composite z-score that is -0.9 or more?
Reply: NO

Query: Entry N#Cc1ccc(-c2cccc(=O)o2)cc1 : is its composite z-score no less than -0.9?
Reply: YES

Query: Determine whether this compound has composite z-score no lower than -0.9: COc1ccc([Si](C)(C)[C@@H]2[C@@H](CC(=O)N3Cc4ccccc4C[C@H]3CO)O[C@]3(C(=O)N(Cc4ccc(N5CCOC5=O)cc4)c4ccccc43)[C@H]2C)cc1
Reply: YES

Query: Please indicate if the recorded composite z-score for COc1ccc([Si](C)(C)[C@H]2[C@H](CC(=O)N3Cc4ccccc4C[C@H]3CO)O[C@@]3(C(=O)N(C)c4c(Br)cc(C)cc43)[C@@H]2C)cc1 meets or exceeds -0.9.
Reply: YES

----------
In this section we review reported composite z-score values for a set of molecules.
# system_name: Concanavalin-A (Canavalia ensiformis)
# assay_text: compounds binding concanavalin A lectin – biochemical, small-molecule microarray, Alexa647 label, 635 nm, artefact control for SMM control protein annotation, primary screen (AID 1127);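 also: z combines 667 nm emission intensity with signal-to-noise across three replicate slides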
# study_conditions: ConA-A647 binding fluorescence, higher = more signal
Answer as a number with no unit attached.

CCOC(=O)C1=CC[C@@H](c2ccccc2)N(S(=O)(=O)c2ccc(C)cc2)[C@H]1c1ccccc1I    1.01

Query: Quickly give me recorded composite z-score for O=C1C=C(c2ccccc2)C(=O)C2=C1CC([C@H]1Oc3ccccc3S(=O)(=O)N3CCC[C@@H]13)=CC2
Reply: 0.0457

----------
# assay_text: probe aLefty2 binding to arrayed compounds – biochemical, biotinylated probe, 635/667 nm fluorescence, primary screen (AID 1094);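 also: score merges spot fluorescence near 667 nm with spot signal-to-noise ratio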
# study_conditions: small-molecule microarray, higher = more signal
readout_kind: composite z-score
The reply should be a number, written without any unit.

Query: Using known records, supply composite z-score for CC1=C([C@H](O)CCc2ccccc2)[C@H](CO)n2c(=O)n(-c3ccccc3)c(=O)n2C1
Reply: -0.355

Query: For O=C(NCC(O)CO)C1N=C(c2ccc(OCCCO)cc2)N(c2ccccc2)O1 (configuration not stated) , write its composite z-score.
Reply: -0.196

Query: Hello, please tell me recorded composite z-score for this one: CN(C)CCCNC(=O)[C@@]1(C)c2ccccc2C(=O)N(Cc2ccc(OC(F)(F)F)cc2)[C@H]1c1ccc(CO)cc1
Reply: 0.0239

Query: Specify reported composite z-score for the compound shown: O=C1C[C@]2(c3ccc([N+](=O)[O-])cc3)C(=O)N(C3CC3)c3cc(CO)ccc3[C@H]2N1C1CCCCC1
Reply: -0.171

Query: Note composite z-score for the compound shown: COc1ccc([Si](C)(C)[C@@H]2[C@@H](CC(=O)N(CCO)Cc3ccccc3)O[C@]3(C(=O)N(Cc4ccc(N5C(=O)c6cccc7cccc5c67)cc4)c4ccccc43)[C@H]2C)cc1
Reply: -0.0785

Query: # return recorded composite z-score for input O=C1O[C@@H](c2ccccc2)[C@@H](c2ccccc2)N2[C@@H](c3ccc(OCCO)cc3)[C@]3(C(=O)Nc4ccc(C#CC5(O)CCCCCC5)cc43)[C@@H](C(=O)O)[C@H]12
Reply: -0.166

----------
Attribute: composite z-score
# System: XIP peptide (Xip251-270)
# assay_text: compounds binding XIP fragment 251-270 – biochemical, small-molecule microarray, fluorescence 635/667 nm, 0.5 µg/mL protein, primary screen (AID 1183)
# study_conditions: fluorescence 635 nm, higher = more signal
Just the number, please.

O=C(NC1CC1)[C@@H]1c2ccccc2C(=O)N(CC23CC4CC(CC(C4)C2)C3)[C@H]1c1ccc(CO)cc1    0.686

Query: # return recorded composite z-score for input CC(C)=C1C(=O)C(c2ccccc2)=C2CN3C(=O)N(CCc4ccccc4)C(=O)[C@]3(C)[C@H]21
Reply: 0.295

Query: Return reported composite z-score. Input compound: C=C(C)[C@@H]1CC=C(C(O)C2C=CC3C(=O)N(C)C(=O)C3N2Nc2ccc([N+](=O)[O-])cc2[N+](=O)[O-])CC1 (stereo not given in full)
Reply: 0.641

Query: Supply measured composite z-score of COc1ccc([Si](C)(C)[C@@H]2[C@@H](CC(=O)N(CCO)Cc3ccccc3)O[C@]3(C(=O)N(Cc4ccc(I)cc4)c4ccccc43)[C@H]2C)cc1 in your reply.
Reply: 0.256

----------
# assay_text: budding yeast growth modifiers under rapamycin – strain BY4716, OD600, 96 h, primary screen (AID 1091)
# study_conditions: S. cerevisiae BY4716 + rapamycin, higher = more signal, called active from +8 up or from −8 down
Measured z-score by item
Answer with a number only.

COC(=O)[C@@]1(Cc2ccc(F)cc2)[C@H]2c3cc(C(=O)N4CCCC4)n(Cc4cc(F)cc5c4OCOC5)c3C[C@H]2CN1C(=O)c1ccccc1    3.33

Query: Identify z-score associated with the compound COc1ccc(CCNC(=O)[C@@H]2c3ccccc3C(=O)N(Cc3ccccc3OC)[C@H]2c2ccc(CO)cc2)cc1
Reply: -0.323

Query: Give the measured z-score for COc1ccc([Si](C)(C)[C@H]2[C@H](CC(=O)N3CCC[C@H]3CO)O[C@@]3(C(=O)N(Cc4ccc(N5CCCCC5=O)cc4)c4ccccc43)[C@@H]2C)cc1
Reply: -0.801

Query: Give a short answer stating reported z-score for NC(=O)N1C(=O)C2C(C1=O)C1C=C(CCCO)C2C(c2ccc(CN3CCCC3)cc2)N1Cc1sc2ccccc2c1Cl (stereo not given) .
Reply: -1.27

Query: Identify the reported z-score for the following entry. CC(C)(C)N1CC=CC23O[C@@H]4C=CCCOC(=O)C4[C@H]2C(=O)N(CCCCCCO)[C@@H]3C1=O (stereo not given in full)
Reply: 0.352

Query: Return the recorded z-score value; entry: C[C@@H]1ON(c2ccccc2)[C@H](c2ccccc2)[C@H]1C(=O)O
Reply: -0.408

Query: Give me measured z-score, please, for this compound: COC(=O)[C@@]1(Cc2ccccc2)[C@H]2c3cc(C(=O)N4CCCC4)n(Cc4ccc(OC)c(OC)c4)c3C[C@H]2CN1C(=O)c1ccccc1
Reply: 1.45

Query: Look up z-score of Cc1ccc(S[C@]2(C(=O)NCc3ccccc3)CC(=O)N(Cc3ccccc3C(F)(F)F)[C@@H]2c2ccc(CO)cc2)cc1 and report it.
Reply: -0.417

Query: Name the recorded z-score of the item C=CCOC(=O)[C@H]1[C@@H]2C(=O)O[C@@H](c3ccccc3)[C@@H](c3ccccc3)N2[C@@H](c2ccc(OCCOC(=O)[C@H]3C[C@H]4C(=O)N[C@@H](CC(C)C)C(=O)N4[C@H]3c3ccc(O)cc3)cc2)[C@]12C(=O)Nc1ccccc12 in your answer.
Reply: 3.92

Query: Hello, please tell me recorded z-score for this one: O=C1O[C@@H](c2ccccc2)[C@@H](c2ccccc2)N2[C@@H](c3ccc(OCCO)cc3)[C@]3(C(=O)Nc4ccc(C#CCCO)cc43)[C@@H](C(=O)O)[C@H]12
Reply: -0.261

Query: Answer with the recorded z-score for the compound listed here: CCOC(=O)C[C@H]1[C@H](OC(=O)Cc2ccc3c(c2)OCO3)[C@@H](NC(=O)Cc2ccc(OC)cc2)c2cc(OCCCO)ccc2N1C(=O)Cc1ccc(OC)cc1
Reply: -0.495

Query: Provide measured z-score value, entry: CN1C(=O)C2C(C3CC3)C=C3CN(Cc4cccc(Cl)c4)[C@@H]([C@@H](O)Cc4ccccc4)C3C2C1=O (stereo not given in full)
Reply: -0.539

Query: Identify z-score associated with the compound NC(=O)NCC#Cc1ccc2c(c1)[C@]1(C(=O)N2)[C@H](c2ccc(OCCO)cc2)N2[C@H](c3ccccc3)[C@H](c3ccccc3)OC(=O)[C@H]2[C@@H]1C(=O)O
Reply: 0.23

Query: Tell me its z-score given C=CCNC(=O)[C@H]1[C@@H]2C(=O)O[C@@H](c3ccccc3)[C@@H](c3ccccc3)N2[C@@H](c2ccc(OCCO)cc2)[C@]12C(=O)Nc1ccccc12 as the entry.
Reply: 2.84

Query: Please look at this compound and report its z-score: C=CCN1Cc2ccccc2[C@H]2OC(c3ccc(OCCCO)cc3)=N[C@@]2(CCS(=O)(=O)c2ccccc2)C1=O
Reply: 5.35

Query: Assign z-score to the following record: CC(C)=CCCC(C)=CC(O)C1C=CC2C(=O)NC(=O)C2N1Nc1ccccn1 (stereo not given)
Reply: -0.952

Query: Kindly indicate its recorded z-score. Item: N#Cc1ccc(NN2C(C(O)C3CC=CCC3)C=CC3C(=O)N(c4ccccc4)C(=O)C32)cc1 (stereo not given)
Reply: 1.99

Query: Give a short answer stating reported z-score for CC1=C([C@H](O)CCc2ccccc2)[C@H](CO)n2c(=O)n(-c3ccccc3)c(=O)n2C1 .
Reply: -0.539

Query: Give z-score for C[C@@H]1NC(=O)C([C@@H](C)OCc2ccccc2)NC(=O)[C@@]23C(=O)N[C@@H](Cc4ccccc4)C2[C@H](C)[C@@]2(C)O[C@H]2C3/C=C/C/C=C\CNC1=O (stereo not given in full)
Reply: 0.186

Query: Write down z-score measured for item O=C1N(CCS(=O)(=O)c2ccccc2)c2ccccc2C[C@]12N=C(c1ccc(OCCCO)cc1)O[C@@H]2c1ccccc1
Reply: 4.39
